- targetSystem: MCL1/Bim (Homo sapiens (Human))
- Sequence (Q07820 171-327): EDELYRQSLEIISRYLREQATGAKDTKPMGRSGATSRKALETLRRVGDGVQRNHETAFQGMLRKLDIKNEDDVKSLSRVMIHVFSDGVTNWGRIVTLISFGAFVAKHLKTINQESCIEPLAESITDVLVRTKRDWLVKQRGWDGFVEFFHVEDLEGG
- protocolText: MCL1/Bim Binding AlphaLISA Assay
- experimentalContext: recombinant human 6xHis-MCL1 (171-327), biotinylated Bim peptide (51-76)
pIC50: −log10 of the molar value.

{"molecule": "CCCO[C@H]1/C=C/C[C@H](C)C[S@@](=O)(NC(=O)c2cn(C)nc2OC)=NC(=O)c2ccc3c(c2)N(C[C@@H]2CC[C@H]21)C[C@@]1(CCCc2cc(Cl)ccc21)CO3 (mixture of isomers)", "pIC50": 8.75}
{"molecule": "CO[C@H]1/C=C/C[C@H](C)[C@@H](C)[S@@](=O)(NC(=O)c2cc3n(c2)CCOC3)=NC(=O)c2ccc3c(n2)N(C[C@@H]2CC[C@H]21)C[C@]1(CO3)C[C@@H]2C[C@@H]2c2cc(Cl)ccc21", "pIC50": 9.64}
{"molecule": "CCn1cc(C(=O)N[S@@]2(=O)=NC(=O)c3ccc4c(c3)N(C[C@@H]3CC[C@H]3[C@@H](OC)/C=C/C[C@H](C)C2)C[C@]2(CO4)C[C@@H]3C[C@@H]3c3cc(Cl)ccc32)cn1", "pIC50": 9.98}
{"molecule": "COc1nn(C)cc1C(=O)N[S@@]1(=O)=NC(=O)c2ccc3c(c2)N(C[C@@H]2CC[C@H]2[C@@H](OCCN2CCN(C)CC2)/C=C/C[C@H](C)C1)C[C@@]1(CCCc2cc(Cl)ccc21)CO3", "pIC50": 10.12}
{"molecule": "COc1nn(C)cc1C(=O)N[S@@]1(=O)=NC(=O)c2ccc3c(c2)N(C[C@@H]2CC[C@H]2[C@@H](OC)/C=C/[C@H](NC(C)=O)[C@H](C)C1)C[C@@]1(CCCc2cc(Cl)ccc21)CO3", "pIC50": 9.20}

====

- targetSystem: MCL1/Bim (Homo sapiens (Human))
- protocolText: MCL1/Bim Binding AlphaLISA Assay
- experimentalContext: recombinant human 6xHis-MCL1 (171-327), biotinylated Bim peptide (51-76)
Hi! Just check whether IC50 is below 0.2 nM. Below gives YES, equal or above gives NO.

{"compound": "COc1nn(C)cc1C(=O)N[S@@]1(=O)=NC(=O)c2ccc3c(c2)N(C[C@@H]2CC[C@H]2[C@@H](OC)/C=C/[C@H](OCCN2CC4(CN(C)C4)C2)[C@H](C)C1)C[C@@]1(CCCc2cc(Cl)ccc21)CO3", "targetSystem": "MCL1/Bim (Homo sapiens (Human))", "classAssignment": "YES"}
{"compound": "COc1nn(C)cc1C(=O)N[S@@]1(=O)=NC(=O)c2ccc3c(c2)N(C[C@@H]2CC[C@H]2[C@@H](OC)/C=C/[C@@H](OC)[C@H](C)C1)C[C@@]1(CCCc2cc(Cl)ccc21)CO3", "targetSystem": "MCL1/Bim (Homo sapiens (Human))", "classAssignment": "NO"}
{"compound": "CO[C@H]1/C=C/C[C@H](C)C[S@@](=O)(Nc2ncc(C#N)cn2)=NC(=O)c2ccc3c(c2)N(C[C@@H]2CC[C@H]21)C[C@@]1(CCCc2cc(Cl)ccc21)CO3", "targetSystem": "MCL1/Bim (Homo sapiens (Human))", "classAssignment": "NO"}
{"compound": "CO[C@H]1/C=C/C[C@H](C)C[S@@](=O)(Nc2nc(N(C)C)nc3nn(C)cc23)=NC(=O)c2ccc3c(c2)N(C[C@@H]2CC[C@H]21)C[C@@]1(CCCc2cc(Cl)ccc21)CO3", "targetSystem": "MCL1/Bim (Homo sapiens (Human))", "classAssignment": "YES"}
{"compound": "COc1nn(C)cc1C(=O)N[S@@]1(=O)=NC(=O)c2ccc3c(c2)N(C[C@@H]2CC[C@H]2[C@@H](OC)C[C@H]2CCO[C@@H]2CC1)C[C@@]1(CCCc2cc(Cl)ccc21)CO3", "targetSystem": "MCL1/Bim (Homo sapiens (Human))", "classAssignment": "NO"}
{"compound": "COc1nn(C)cc1C(=O)N[S@@]1(=O)=NC(=O)c2ccc3c(c2)N(C[C@@H]2CC[C@H]2[C@](O)(CC(=O)N2CCN4CCOCC4C2)/C=C/C[C@H](C)C1)C[C@@]1(CCCc2cc(Cl)ccc21)CO3 (stereo partly drawn)", "targetSystem": "MCL1/Bim (Homo sapiens (Human))", "classAssignment": "YES"}
{"compound": "COc1nn(C)cc1C(=O)N[S@@]1(=O)=NC(=O)c2ccc3c(c2)N(C[C@@H]2CC[C@H]2[C@@](O)(CC(=O)N2CCN(C)CC2)/C=C/C[C@H](C)C1)C[C@@]1(CCCc2cc(Cl)ccc21)CO3", "targetSystem": "MCL1/Bim (Homo sapiens (Human))", "classAssignment": "YES"}
{"compound": "COc1nn(C)cc1C(=O)N[S@@]1(=O)=NC(=O)c2ccc3c(c2)N(C[C@@H]2CC[C@H]2[C@H]2OCCCC2CC[C@H](C)C1)C[C@@]1(CCCc2cc(Cl)ccc21)CO3 (mixture of isomers)", "targetSystem": "MCL1/Bim (Homo sapiens (Human))", "classAssignment": "NO"}
{"compound": "COc1nn(C)cc1C(=O)N[S@@]1(=O)=NC(=O)c2ccc3c(c2)N(C[C@@H]2CC[C@H]2[C@@H](OC)/C=C/[C@@](C)(O)[C@H](C)C1)C[C@@]1(CCCc2cc(Cl)ccc21)CO3", "targetSystem": "MCL1/Bim (Homo sapiens (Human))", "classAssignment": "YES"}

====

This listing pairs molecules with measured pIC50.
- targetSystem: MCL1/Bim (Homo sapiens (Human))
- protocolText: MCL1/Bim Binding AlphaLISA Assay
- experimentalContext: recombinant human 6xHis-MCL1 (171-327), biotinylated Bim peptide (51-76)
pIC50: −log10 of the molar value.

{"molecule": "CO[C@H]1/C=C/C[C@H](C)[C@@H](C)[S@@](=O)(NC(=O)c2cnn(C)c2)=NC(=O)c2ccc3c(c2)N(C[C@@H]2CC[C@H]21)C[C@]1(CO3)SCCc2cc(Cl)ccc21", "pIC50": 10.22}
{"molecule": "CCCO[C@H]1/C=C/[C@H](OC)[C@@H]2CC[C@H]2CN2C[C@@]3(CCCc4cc(Cl)ccc43)COc3ccc(cc32)C(=O)N=[S@](=O)(NC(=O)c2cn(C)nc2OC)C[C@H]1C", "pIC50": 9.69}
{"molecule": "CO[C@H]1/C=C/CCC[S@@](=O)(NC(=O)c2cc3n(c2)CCOC3)=NC(=O)c2ccc3c(c2)N(C[C@@H]2CC[C@H]21)C[C@]1(CO3)C[C@@H]2C[C@@H]2c2cc(Cl)ccc21", "pIC50": 9.60}
{"molecule": "COc1nn(C)cc1C(=O)N[S@@]1(=O)=NC(=O)c2ccc3c(c2)N(C[C@@H]2CC[C@H]2[C@@H]2/C=C/[C@@H](OCCCC(=O)O2)[C@H](C)C1)C[C@@]1(CCCc2cc(Cl)ccc21)CO3", "pIC50": 9.44}
{"molecule": "COc1nn(C)cc1C(=O)N[S@@]1(=O)=NC(=O)c2ccc3c(c2)N(C[C@@H]2CC[C@H]2[C@@H](OC)/C=C/[C@H](Oc2ccncc2)[C@H](C)C1)C[C@@]1(CCCc2cc(Cl)ccc21)CO3", "pIC50": 9.17}
{"molecule": "COc1nn(C)cc1C(=O)N[S@@]1(=O)=NC(=O)c2ccc3c(c2)N(C[C@@H]2CC[C@H]2[C@@H](OC)[C@H](OC)/C=C\\[C@H](C)C1)C[C@@]1(CCCc2cc(Cl)ccc21)CO3", "pIC50": 9.19}
{"molecule": "C[C@H]1C/C=C/[C@H](O)[C@@H]2CC[C@H]2CN2C[C@@]3(CCCc4cc(Cl)ccc43)COc3ccc(cc32)C(=O)N=[S@](=O)(Nc2nc3nnnn3c3nn(C)cc23)C1 (mixture of isomers)", "pIC50": 10.19}
{"molecule": "CO[C@H]1/C=C/C[C@H](C)C[S@@](=O)(NC(=O)N[C@H]2C[C@@H]2OC)=NC(=O)c2ccc3c(n2)N(C[C@@H]2CC[C@H]21)C[C@@]1(CCCc2cc(Cl)ccc21)CO3 (mixture of isomers)", "pIC50": 10.22}
{"molecule": "COc1nn(C)cc1C(=O)N[S@@]1(=O)=NC(=O)c2ccc3c(c2)N(C[C@@H]2CC[C@H]2[C@@](O)(CC(=O)N2CCN4CCOCC4C2)/C=C/C[C@H](C)C1)C[C@@]1(CCCc2cc(Cl)ccc21)CO3 (stereo partly shown)", "pIC50": 10.59}
{"molecule": "COc1nn(C)cc1C(=O)N[S@@]1(=O)=NC(=O)c2ccc3c(c2)N(C[C@@H]2CC[C@H]2[C@H]2OC(O)C[C@@H]2CC[C@H](C)C1)C[C@@]1(CCCc2cc(Cl)ccc21)CC3 (mixture of isomers)", "pIC50": 10.46}
{"molecule": "COc1nn(C)cc1C(=O)N[S@@]1(=O)=NC(=O)c2ccc3c(c2)N(C[C@@H]2CC[C@H]2[C@](O)(CC(=O)N(C)C)/C=C/C[C@H](C)C1)C[C@@]1(CCCc2cc(Cl)ccc21)CO3", "pIC50": 10.12}
{"molecule": "COc1nn(C)cc1C(=O)N[S@@]1(=O)=NC(=O)c2ccc3c(c2)N(C[C@@H]2CC[C@H]2[C@@](O)(CC(=O)N2CCOCC2)/C=C/C[C@H](C)C1)C[C@@]1(CCCc2cc(Cl)ccc21)CO3 [Example 99]", "pIC50": 10.47}
{"molecule": "CCn1ccc(OC[C@H]2C/C=C/[C@H](OC)[C@@H]3CC[C@H]3CN3C[C@@]4(CCCc5cc(Cl)ccc54)COc4ccc(cc43)C(=O)N=[S@@](=O)(NC(=O)COC3CCOCC3)C2)n1", "pIC50": 9.28}
{"molecule": "COc1nn(C)cc1C(=O)N[S@@]1(=O)=NC(=O)c2ccc3c(c2)N(C[C@@H]2CC[C@H]2/C=C/[C@H]2OCCO[C@@H]2[C@H](C)C1)C[C@@]1(CCCc2cc(Cl)ccc21)CO3", "pIC50": 9.49}
{"molecule": "COc1nn(C)cc1C(=O)N[S@@]1(=O)=NC(=O)c2ccc3c(c2)N(C[C@@H]2CC[C@H]2[C@@H](OC)/C=C/[C@H](OCc2ccncc2)[C@H](C)C1)C[C@@]1(CCCc2cc(Cl)ccc21)CO3", "pIC50": 10.00}
{"molecule": "COc1nn(C)cc1C(=O)N[S@@]1(=O)=NC(=O)c2ccc3c(c2)N(C[C@@H]2CC[C@H]2[C@H](OC)/C=C/[C@@](C)(O)[C@H](C)C1)C[C@@]1(CCCc2cc(Cl)ccc21)CO3", "pIC50": 10.33}
{"molecule": "COc1nn(C)cc1C(=O)N[S@@]1(=O)=NC(=O)c2ccc3c(c2)N(C[C@@H]2CC[C@H]2[C@@H](OC)C[C@@H]2[C@H](OC[C@H]2C)[C@H](C)C1)C[C@@]1(CCCc2cc(Cl)ccc21)CO3", "pIC50": 9.72}
{"molecule": "COc1nn(C)cc1C(=O)N[S@@]1(=O)=NC(=O)c2ccc3c(c2)N(C[C@@H]2CC[C@H]2/C=C/C=C\\[C@H](C)C1)C[C@@]1(CCCc2cc(Cl)ccc21)CO3", "pIC50": 10.06}
{"molecule": "CO[C@H]1/C=C/C[C@H](C)C[S@@](=O)(NC(=O)NC2CC2)=NC(=O)c2ccc3c(c2)N(C[C@@H]2CC[C@H]21)C[C@]1(CO3)SCCc2cc(Cl)ccc21", "pIC50": 10.05}
